Experiment: Acute toxicity in single ip dosed Swiss mouse assessed as death up to 5 days
Format: organism-based
Settings: in vivo
# note: boundary value 60 mg/kg maps to no; LD50 at 120 h below it maps to yes

Q. Determine whether this molecule shows LD50 at 120 h lower than 60 mg/kg (ties excluded): `O=C1C=CC(=NCl)C=C1`
A. yes

Q. Determine whether this molecule shows LD50 at 120 h lower than 60 mg/kg (ties excluded): `CC(=O)NC1=C/C(=N\c2ccc(N(C)C)cc2)C=CC1=O`
A. no

Q. Determine whether this molecule shows LD50 at 120 h lower than 60 mg/kg (ties excluded): `CC(=O)Oc1ccc(N=C2C=CC(=O)C=C2)cc1`
A. no

Q. Determine whether this molecule shows LD50 at 120 h lower than 60 mg/kg (ties excluded): `CC1=C/C(=N\c2ccc(N(C)C)cc2)C=CC1=O`
A. yes

Q. Determine whether this molecule shows LD50 at 120 h lower than 60 mg/kg (ties excluded): `O=C1C(Br)=CC(=NCl)C=C1Br`
A. no

Q. Determine whether this molecule shows LD50 at 120 h lower than 60 mg/kg (ties excluded): `O=C1C=C/C(=N/O)C(Br)=C1`
A. no

Q. Determine whether this molecule shows LD50 at 120 h lower than 60 mg/kg (ties excluded): `O=C1C=C/C(=N/O)C=C1Cl`
A. no

Q. Determine whether this molecule shows LD50 at 120 h lower than 60 mg/kg (ties excluded): `CN(C)c1ccc(N=C2C=CC(=O)C=C2)cc1`
A. no

Q. Determine whether this molecule shows LD50 at 120 h lower than 60 mg/kg (ties excluded): `COC1=C/C(=N\O)C=CC1=O`
A. no

Q. Determine whether this molecule shows LD50 at 120 h lower than 60 mg/kg (ties excluded): `O=C1C=CC(=NBr)C=C1`
A. yes

Q. Determine whether this molecule shows LD50 at 120 h lower than 60 mg/kg (ties excluded): `O=C1C=CC(=Nc2ccc([O-])cc2)C=C1.[Na+]`
A. yes

Q. Determine whether this molecule shows LD50 at 120 h lower than 60 mg/kg (ties excluded): `O=C1C(Cl)=CC(=NCl)C=C1Cl`
A. yes

Q. Determine whether this molecule shows LD50 at 120 h lower than 60 mg/kg (ties excluded): `COC1=C/C(=N\c2ccc(N(C)C)cc2)C=CC1=O`
A. yes

Q. Determine whether this molecule shows LD50 at 120 h lower than 60 mg/kg (ties excluded): `O=C1C(Br)=CC(=NBr)C=C1Br`
A. yes

The origin of these recorded values is ChEMBL document CHEMBL3271988.
